Documented abundance fitness across a set of variants
B1: Homeobox protein cut-like 2, residues 895 to 963; numbered along this chain, O14529 (parent)
chain: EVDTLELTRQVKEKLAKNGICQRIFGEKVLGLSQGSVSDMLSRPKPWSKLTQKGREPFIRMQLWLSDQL

- Variants of: B1
- assayInfo: abundance fitness (aPCA) (normalised: wild type 0, dead -1); higher = more abundant; growth selection in yeast, the domain comes from the species named
- experimentalContext: Homo sapiens

[
  {
    "changes": "T8W",
    "abundance fitness": -0.206
  }
]

Asked: Return reported abundance fitness; argument: N18D
Given back: -0.153

Asked: Return reported abundance fitness; argument: T51N
Given back: -0.082

Asked: Return reported abundance fitness; argument: Q68F
Given back: -0.099

Asked: Return reported abundance fitness; argument: Q34G
Given back: 0.434
